Cited source for all entries: patent US6441006B2

assay target: CNS nicotinic receptors (Rattus norvegicus, UniProt P09483+P12390)
Construct: Ki
Sequence (P09483 31-630): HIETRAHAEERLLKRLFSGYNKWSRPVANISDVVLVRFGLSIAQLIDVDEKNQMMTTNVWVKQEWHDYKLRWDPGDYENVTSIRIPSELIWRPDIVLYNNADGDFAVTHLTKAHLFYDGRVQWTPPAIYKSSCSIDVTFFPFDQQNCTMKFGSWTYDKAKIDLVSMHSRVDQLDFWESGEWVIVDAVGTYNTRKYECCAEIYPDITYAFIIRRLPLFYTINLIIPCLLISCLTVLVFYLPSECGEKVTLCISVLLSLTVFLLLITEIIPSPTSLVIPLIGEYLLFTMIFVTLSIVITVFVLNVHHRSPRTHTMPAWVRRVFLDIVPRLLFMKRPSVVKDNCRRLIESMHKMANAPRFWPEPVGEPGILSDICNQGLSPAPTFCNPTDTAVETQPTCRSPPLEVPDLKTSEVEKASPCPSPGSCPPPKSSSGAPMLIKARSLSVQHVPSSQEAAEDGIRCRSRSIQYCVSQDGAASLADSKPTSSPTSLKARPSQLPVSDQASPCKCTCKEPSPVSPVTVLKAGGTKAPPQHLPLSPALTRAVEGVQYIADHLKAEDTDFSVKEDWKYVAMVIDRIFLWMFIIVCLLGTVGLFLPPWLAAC
Sequence (P12390 25-500): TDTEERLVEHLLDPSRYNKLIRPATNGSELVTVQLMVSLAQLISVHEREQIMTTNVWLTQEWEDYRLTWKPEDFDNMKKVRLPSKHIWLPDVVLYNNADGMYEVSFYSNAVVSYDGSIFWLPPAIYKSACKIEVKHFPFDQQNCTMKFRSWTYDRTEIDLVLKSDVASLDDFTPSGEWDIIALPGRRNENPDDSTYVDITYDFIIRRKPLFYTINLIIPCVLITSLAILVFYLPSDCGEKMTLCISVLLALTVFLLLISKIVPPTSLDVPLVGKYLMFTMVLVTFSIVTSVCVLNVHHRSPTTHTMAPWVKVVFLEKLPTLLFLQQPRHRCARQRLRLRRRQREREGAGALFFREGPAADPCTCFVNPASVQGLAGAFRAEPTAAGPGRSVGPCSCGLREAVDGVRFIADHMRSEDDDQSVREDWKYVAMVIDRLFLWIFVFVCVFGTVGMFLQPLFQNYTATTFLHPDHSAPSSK
experiment description: Binding to relevant receptor sites
condition info: calculated from IC50 values using the method of Cheng et al.

compound smiles	assay target	Ki, µM
CC(C)NCCCOc1cccnc1	CNS nicotinic receptors (Rattus norvegicus, UniProt P09483+P12390)	8.5
